- measured.target: T1, cynomolgus monkey DLL4 extracellular domain (cynomolgus monkey)
- T1 construct: extracellular domain; also called cynoDLL4 ECD; Cyno DLL4
- method: SPR (Biacore)
Recorded measurements of kon, one per entry
Use M⁻¹ s⁻¹ as the unit, but write only the number.

Below: 3 binders and their reported kon.
{"columns": ["binder", "measurement.units", "test.result"],
 "data": [
  ["14A11 rat anti-DLL4 monoclonal antibody (antibody, rat IgG2a, V domains shown, rat IgG2a/K hybridoma mAb; also called MC13-14A11.3A4) VH: EVQLQQSGPELAKPGSSVKISCKASGYTFTNSYISWIKQTTGQGLEYVGYINTGSGGADYNEKFKGKATLTVDKSSRTAFMQLSSLTPGDSAVYYCAKSILLGSTCYFDYWGQGVLVTVSS VL: NTVLTQSPALAVSLGQRVTISCKASRSVSSPMYSYIYWYQQKPGQQPKLLIYRASTLASGVPARFSGSGSGTDFTLNIDPVEADDIATYFCQQSWSDPFTFGSGTKLEIKR", "M⁻¹ s⁻¹", 110000],
  ["32C7 rat anti-DLL4 monoclonal antibody (antibody, rat IgG2a, V domains shown, rat IgG2a/k hybridoma mAb; also called MC10-32C7.5A4) VH: EVQLVESGGGLVQPGRSLKLSCLASGFPFSSVWMTWIRQAPGKGLEWIATITNSGASTYYSASVKGRFTISRDNVKSTLYLQMTSLGSEDTATYYCTRVGTSFDYWGQGVMVTVSS VL: DIQMTQSPASLSASLGETVTIECRASDDIYNGLAWFQQKPGKSPQLLIYDANTLHTGVPSRFSGSGSGTQFSLKINSLQSEDVASYFCQQFYDYPPYTFGAGTKLELKR", "M⁻¹ s⁻¹", 220000],
  ["1A11 rat anti-DLL4 monoclonal antibody (antibody, rat IgG1, V domains shown, rat IgG1/K hybridoma mAb; also called MC13-1A11.2E1; 1A11 (rat mAb)) VH: EVQLVESGGGLVQPGRSMKLSCAASGFTFRNFPMAWVRQAPTRGLEWVATISSSDGTTYYRDSVKGRFTISRDNAKSTLYLQVNSLRSEDTATYYCSRGYYNSPFAYWGQGTLVTVSS VL: DIQMTQSPASLSASLGETVTIECRASEDIYSNLAWYQQKPGNSPQLLIFDTNNLADGVPSRFSGSGSGTQSSLKINSLQSEDVASYFCQQYNNYPPTFGGGTKLELKR", "M⁻¹ s⁻¹", 110000]
]}

Turning now to a further record.
Consider the binder 37D10 rat anti-DLL4 monoclonal antibody (antibody, rat IgG2a, V domains shown, rat IgG2a/k hybridoma mAb; also called 40B10; 37D10 = 40B10) VH: AVQLVESGGGLVQPKESLKISCAASGFTFSNAAMYWVRLAPGKGLEWVARIRTKPNNYATYYAESVKGRFTISRDDSKSMVYVQMDNLKTEDTAMYYCTAAPWRDSYAHVYWGQGVMVTVSS VL: DIQMTQSPPVLSASVGDRVTLSCKASQNIHKNLDWYQQKHGDAPKLLIYYTDHLQTGVPSRFSGSGSATDYTLTISSLQPEDVATYYCYQYNGGPFTFGSGTKLEIKR . State its measured kon.
40000

Each recorded value in this set is attributed to patent US20110217237A1.
